FYI, the data here is from ChEMBL document CHEMBL5214978.

test system: SF-295; test: Anticancer activity against human SF-295 cells assessed as cell growth inhibition measured after 48 hrs by SRB assay; format: functional
Measured GI50 by item

{"molecular string": "CCc1nc(C[C@@H]2NC(=O)c3cc(Oc4cc(C)cc(C)c4)c(NC(=O)c4cc(OC)c(OC)c(OC)c4)cc3NC2=O)no1", "unit spec": "µM", "comparator": "=", "GI50": 0.12}
{"molecular string": "CCCCN(CCCC)C(=O)C[C@@H]1NC(=O)c2cc(Oc3cc(C)cc(C)c3)c(NC(=O)c3cc(OC)c(OC)c(OC)c3)cc2NC1=O", "unit spec": "µM", "comparator": "=", "GI50": 0.32}
{"molecular string": "COC(=O)C[C@@H]1NC(=O)c2cc(Oc3ccc(C)c(C)c3)c(NC(=O)c3cc(OC)c(OC)c(OC)c3)cc2NC1=O", "unit spec": "µM", "comparator": "=", "GI50": 1.01}
{"molecular string": "COc1cc(C(=O)Nc2cc3c(cc2Oc2cc(C)cc(C)c2)C(=O)N[C@@H](Cc2ncnn2C)C(=O)N3)cc(OC)c1OC", "unit spec": "µM", "comparator": "=", "GI50": 0.18}
{"molecular string": "COC(=O)C[C@@H]1NC(=O)c2cc(Oc3cc(C)cc(C)c3)c(NC(=O)c3cc(OC)c(OC)c(OC)c3)cc2NC1=O", "unit spec": "µM", "comparator": "=", "GI50": 0.07}
{"molecular string": "COC(=O)C[C@@H]1NC(=O)c2cc(OCCc3cc(C)cc(C)c3)c(NC(=O)c3cc(OC)c(OC)c(OC)c3)cc2NC1=O", "unit spec": "µM", "comparator": "=", "GI50": 1.61}
{"molecular string": "COC(=O)CC[C@@H]1NC(=O)c2cc(Oc3cc(C)cc(C)c3)c(NC(=O)c3cc(OC)c(OC)c(OC)c3)cc2NC1=O", "unit spec": "µM", "comparator": "=", "GI50": 1.1}
{"molecular string": "COC(=O)C[C@@H]1NC(=O)c2cc(Oc3cc(C)cc(C)c3)c(NC(=O)c3ccco3)cc2NC1=O", "unit spec": "µM", "comparator": ">", "GI50": 50}
{"molecular string": "COC(=O)C[C@@H]1NC(=O)c2cc(Oc3cc(C)cc(C)c3)c(NC(=O)c3ccc(OC)c(OC)c3OC)cc2NC1=O", "unit spec": "µM", "comparator": ">", "GI50": 50}
{"molecular string": "COC(=O)C[C@@H]1NC(=O)c2cc(Oc3ccccc3)c(NC(=O)c3cc(OC)c(OC)c(OC)c3)cc2NC1=O", "unit spec": "µM", "comparator": ">", "GI50": 50}
{"molecular string": "COC(=O)C[C@@H]1NC(=O)c2cc(OCc3ccccc3)c(NC(=O)c3cc(OC)c(OC)c(OC)c3)cc2NC1=O", "unit spec": "µM", "comparator": ">", "GI50": 50}
{"molecular string": "CCc1noc(C[C@@H]2NC(=O)c3cc(Oc4cc(C)cc(C)c4)c(NC(=O)c4cc(OC)c(OC)c(OC)c4)cc3NC2=O)n1", "unit spec": "µM", "comparator": "=", "GI50": 0.11}
{"molecular string": "COC(=O)C[C@H]1NC(=O)c2cc(Oc3cc(C)cc(C)c3)c(NC(=O)c3cc(OC)c(OC)c(OC)c3)cc2NC1=O", "unit spec": "µM", "comparator": ">", "GI50": 50}
{"molecular string": "COc1cc(C(=O)Nc2cc3c(cc2Oc2cc(C)cc(C)c2)C(=O)N[C@@H](CC(N)=O)C(=O)N3)cc(OC)c1OC", "unit spec": "µM", "comparator": "=", "GI50": 2.01}
{"molecular string": "CCN(CC)C(=O)C[C@@H]1NC(=O)c2cc(Oc3cc(C)cc(C)c3)c(NC(=O)c3c(F)c(OC)c(OC)c(OC)c3Cl)cc2NC1=O", "unit spec": "µM", "comparator": "=", "GI50": 0.04}
